Assignment: determine reported Reactivity (OD492) for the given binders.
Target: biotinylated HCV core peptide 141-161 (Peptide 2) (HCV-1)
Experiment: EIA, captured mAb
One number for each entry, in OD.

Recorded results for 2 binders are shown here.
HCV 208B-471 (antibody, V domains shown) VH: QGQLQQSGPVLVKPGASEILYCKTSGFTFSSTYISWLKQKPGQSLEWIAWIYAGTGATNYNQKFTGKAQLTVDASSNTAYMHFSGLTPEDSAIYYCAISGAGVYWGQGTLVTVSA VL: DVVMTQTPLSLPVSLGDQASISCRSSQSLLHSNGNTYLEWYLQKPGQSPNLLIYNVSNRFSGVPDRFSGSGSGTDFALKISRVGAEDLGVYYCFQGSHVPLTFGAGTKLELKR; 0.11
HCV 208B-1096 (antibody, V domains shown) VH: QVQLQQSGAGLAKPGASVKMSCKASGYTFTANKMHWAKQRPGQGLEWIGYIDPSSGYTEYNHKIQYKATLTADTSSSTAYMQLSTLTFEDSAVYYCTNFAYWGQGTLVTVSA VL: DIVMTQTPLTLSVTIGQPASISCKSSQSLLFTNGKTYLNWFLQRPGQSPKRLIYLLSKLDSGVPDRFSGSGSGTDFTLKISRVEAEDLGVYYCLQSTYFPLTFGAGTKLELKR; 0.13

Please look at the following binder next.
Input HCV 208B-517 (antibody, V domains shown) VH: QVQLKQSGPGLVQPSQSLSITCTVSGFSLITHGVHWVRQSPGKGLEWLGVIWSGGSTDYNAAFISRLSISKDTSKSQVFLKMSSLQADDTAIYYCARNGGATAFDYWGQGTTLTVSS VL: DIVMTQSPATLSVTPGDRVSLSCRASQSISDYLHWYQQKSHESPRLLIKYASQSISGIPSRFRGSGSGSHFTLSINSVEPEDVGVYYCQNGHSFPWTFGGGTKLEIKR . Output Reactivity (OD492): 0.41
